Target: Tyrosine-protein kinase ABL1 (Homo sapiens) (UniProt P00519)
Sequence (P00519 whole entry): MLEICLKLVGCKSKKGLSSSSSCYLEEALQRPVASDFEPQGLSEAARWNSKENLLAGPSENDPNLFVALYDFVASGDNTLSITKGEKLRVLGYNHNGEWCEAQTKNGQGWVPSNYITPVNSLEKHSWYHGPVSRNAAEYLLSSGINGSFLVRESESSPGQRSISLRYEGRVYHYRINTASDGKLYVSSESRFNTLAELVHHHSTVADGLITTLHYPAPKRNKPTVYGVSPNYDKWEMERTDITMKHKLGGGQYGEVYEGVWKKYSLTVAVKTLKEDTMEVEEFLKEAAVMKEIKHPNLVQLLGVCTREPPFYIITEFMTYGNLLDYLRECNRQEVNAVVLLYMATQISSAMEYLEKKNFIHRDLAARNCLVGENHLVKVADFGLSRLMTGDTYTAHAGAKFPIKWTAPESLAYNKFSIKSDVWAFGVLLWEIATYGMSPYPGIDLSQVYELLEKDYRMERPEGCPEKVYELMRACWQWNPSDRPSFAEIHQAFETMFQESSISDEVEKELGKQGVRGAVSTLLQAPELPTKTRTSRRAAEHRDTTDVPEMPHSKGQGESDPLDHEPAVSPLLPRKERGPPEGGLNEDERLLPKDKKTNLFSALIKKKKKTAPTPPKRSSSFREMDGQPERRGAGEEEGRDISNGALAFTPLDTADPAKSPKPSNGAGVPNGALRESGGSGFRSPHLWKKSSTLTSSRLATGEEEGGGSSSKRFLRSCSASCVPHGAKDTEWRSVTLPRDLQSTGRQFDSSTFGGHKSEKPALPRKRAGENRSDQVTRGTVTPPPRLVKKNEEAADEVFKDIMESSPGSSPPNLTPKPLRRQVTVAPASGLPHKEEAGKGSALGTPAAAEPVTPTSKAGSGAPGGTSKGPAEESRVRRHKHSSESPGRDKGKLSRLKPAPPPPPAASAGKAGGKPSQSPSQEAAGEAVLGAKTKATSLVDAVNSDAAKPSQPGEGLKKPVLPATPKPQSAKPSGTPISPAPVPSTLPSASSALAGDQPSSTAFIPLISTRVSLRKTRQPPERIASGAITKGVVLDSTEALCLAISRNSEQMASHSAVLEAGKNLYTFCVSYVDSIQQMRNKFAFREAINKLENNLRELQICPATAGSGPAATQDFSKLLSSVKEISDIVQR
Conditions: Compound concentration 20.0 uM
Description: Thermal Shift Assay. Domain: start/stop: S229-K512
With a cut-off of 0.4 °C, any ΔTm strictly below it is called 1; any ΔTm meeting it or above is called -1.

Use the examples below as a reference point.
Query: is_below(ΔTm, 0.4 °C) for `CCNC(=O)c1cc2c(-c3cc(C(C)(C)O)ccc3Oc3c(C)cc(F)cc3C)cn(C)c(=O)c2[nH]1` ?
Reply: 1

Query: is_below(ΔTm, 0.4 °C) for `O=C(O)Cn1nnc(-c2ccc(CN(CCCCOc3ccc(CN4CCCC4)cc3)CCc3ccccc3)cc2)n1` ?
Reply: 1

Next:
Query: is_below(ΔTm, 0.4 °C) for `C[C@@H](COCCC(=O)N1CCN(c2ncc(C(F)(F)F)cn2)CC1)Nc1cn[nH]c(=O)c1C(F)(F)F` ?
Reply: -1

Query: is_below(ΔTm, 0.4 °C) for `C[C@@H](Nc1nc2c(cnn2C2CCCC2)c(=O)[nH]1)C(=O)N1CC[C@H](F)C1` ?
Reply: -1

Query: is_below(ΔTm, 0.4 °C) for `O=C(Oc1cccc(F)c1OC(=O)c1cccc(O)c1)c1cccc(O)c1` ?
Reply: -1

Query: is_below(ΔTm, 0.4 °C) for `COc1ccc(OC)c(-c2nnc3n2N=C(c2ccc(OC)c(OC)c2)CS3)c1` ?
Reply: 1

Query: is_below(ΔTm, 0.4 °C) for `Cc1nc(N)c2nnn(C[C@H]3CN(Cc4nccs4)CCO3)c2n1` ?
Reply: -1

* * *

Target: Tyrosine-protein kinase ABL1 (Homo sapiens)
Conditions: Compound concentration 20.0 uM
readout_type: ΔTm (°C)
Numbers only; they are read as °C.

Study these solved cases before continuing.
Query: Answer with the recorded ΔTm of `C[C@H]1CO[C@@H]2Cn3cc(C(=O)NCc4ccc(F)cc4F)c(=O)c(O)c3C(=O)N12` only.
Reply: 0.13

Query: Answer with the recorded ΔTm of `O=C(Cc1ccccc1)c1cc(O)c(O)c([N+](=O)[O-])c1` only.
Reply: 0.39

Now for another entry.
Query: Answer with the recorded ΔTm of `Cc1cc(-c2ccc3nc(C4CCOCC4)n(CCOC(F)(F)F)c3c2)cn(C)c1=O` only.
Reply: 0.26

* * *

Target: Cyclin-dependent kinase 2 (Homo sapiens)
Conditions: Compound concentration 20.0 uM
Description: Thermal Shift Assay. Domain: start/stop: M1-L298
// values below are reported ΔTm
Numbers only; they are read as °C.

Study these solved cases before continuing.
Query: Please tell me the measured ΔTm for `Cc1ncsc1-c1ccc(CNC(=O)[C@@H]2C[C@@H](O)CN2C(=O)[C@@H](NC(=O)COCCOCCOc2ccc(-c3ccc4ncnc(Nc5ccc(OCc6cccc(F)c6)c(Cl)c5)c4c3)cc2)C(C)(C)C)cc1` ; system: Cyclin-dependent kinase 2 (Homo sapiens).
Reply: 5.97

Query: Please tell me the measured ΔTm for `CS(=O)(=O)c1ncn2c(NCc3c(F)ccc4c3CCO4)ncc(-c3ccc(C4CC4)nc3)c12` ; system: Cyclin-dependent kinase 2 (Homo sapiens).
Reply: 0.06

Query: Please tell me the measured ΔTm for `COc1cc2c(NC3CCN(C4CCCCC4)CC3)nc(N3CCCN(C(C)C)CC3)nc2cc1OCCCN1CCCCC1` ; system: Cyclin-dependent kinase 2 (Homo sapiens).
Reply: 0.48

Next:
Query: Please tell me the measured ΔTm for `Cc1noc(C)c1-c1cc(Cl)c(Nc2ccccc2C(=O)O)c(Cl)c1` ; system: Cyclin-dependent kinase 2 (Homo sapiens).
Reply: -0.13

Query: Please tell me the measured ΔTm for `COc1cc([C@@H]2Oc3c(O)cc([C@H]4Oc5cc(O)cc(O)c5C(=O)[C@@H]4O)cc3[C@H]2CO)ccc1O` ; system: Cyclin-dependent kinase 2 (Homo sapiens).
Reply: 0.16

Query: Please tell me the measured ΔTm for `Nc1ncnc2nc(-c3ccc(N4CCOCC4)nc3)cc(-c3cccc(Br)c3)c12` ; system: Cyclin-dependent kinase 2 (Homo sapiens).
Reply: 0.07

Query: Please tell me the measured ΔTm for `CC(C)C[C@@H](C=O)NC(=O)[C@@H](NS(=O)(=O)c1ccc(F)cc1)C(C)C` ; system: Cyclin-dependent kinase 2 (Homo sapiens).
Reply: -0.11

Query: Please tell me the measured ΔTm for `COc1ccccc1S(=O)(=O)Nc1ccc2c(c1)CN(C)C(=O)N2` ; system: Cyclin-dependent kinase 2 (Homo sapiens).
Reply: 0.12

Query: Please tell me the measured ΔTm for `COc1cccc(Nc2c(C(N)=O)cnc3c(C)cc(S(=O)(=O)c4cccc(C(=O)N(C)C)c4)cc23)c1` ; system: Cyclin-dependent kinase 2 (Homo sapiens).
Reply: 0.36

Query: Please tell me the measured ΔTm for `CC(=O)N[C@@H](CCCCNC(=O)CSCCNC(=O)CCNC(=O)[C@H](O)C(C)(C)COP(=O)(O)OP(=O)(O)OC[C@H]1O[C@@H](n2cnc3c(N)ncnc32)[C@H](O)[C@@H]1OP(=O)(O)O)C(N)=O` ; system: Cyclin-dependent kinase 2 (Homo sapiens).
Reply: -0.07

Query: Please tell me the measured ΔTm for COc1ccc(-c2ccc(-c3cn(C(=O)N4CCCCC4c4ccccc4)nn3)cc2)cc1 (configuration not stated) ; system: Cyclin-dependent kinase 2 (Homo sapiens).
Reply: 0.04

Query: Please tell me the measured ΔTm for `C[C@@H]1OC(=O)NN=C1c1ccc(-c2ccc(F)cc2)c(C(F)(F)F)c1` ; system: Cyclin-dependent kinase 2 (Homo sapiens).
Reply: -0.76

Query: Please tell me the measured ΔTm for `O=C(CCCCCCC(=O)Nc1ccc([C@H]2O[C@@H](CSc3nc(-c4ccccc4)c(-c4ccccc4)o3)C[C@@H](c3ccc(CO)cc3)O2)cc1)NO` ; system: Cyclin-dependent kinase 2 (Homo sapiens).
Reply: -1.26

Query: Please tell me the measured ΔTm for `NS(=O)(=O)c1cc(-c2nnn[nH]2)c(NCc2cccs2)cc1Cl` ; system: Cyclin-dependent kinase 2 (Homo sapiens).
Reply: 1.03

Query: Please tell me the measured ΔTm for `O=c1[nH]c(N2CCC3(CC2)CN(CCO)c2cc(F)cc(F)c23)nc2c1CCCC2` ; system: Cyclin-dependent kinase 2 (Homo sapiens).
Reply: 0.1

Query: Please tell me the measured ΔTm for `CC1=NN(c2ccc(C(=O)O)cc2)C(=O)/C1=C/c1ccc(-c2cc(C)c(C)cc2[N+](=O)[O-])o1` ; system: Cyclin-dependent kinase 2 (Homo sapiens).
Reply: 0.29

Query: Please tell me the measured ΔTm for `Cc1cccc(Nc2ccncc2S(=O)(=O)NC(=O)NC(C)C)c1` ; system: Cyclin-dependent kinase 2 (Homo sapiens).
Reply: -0.02

Ref: ChEMBL document CHEMBL5724796
